Origin of measurements: patent US9758538B2

Target: truncated PI3Kα (p110α/iSH2 p85α), PI3KA_Act (Homo sapiens (Human))
Sequence (P42336 whole entry, the tested form may be a part): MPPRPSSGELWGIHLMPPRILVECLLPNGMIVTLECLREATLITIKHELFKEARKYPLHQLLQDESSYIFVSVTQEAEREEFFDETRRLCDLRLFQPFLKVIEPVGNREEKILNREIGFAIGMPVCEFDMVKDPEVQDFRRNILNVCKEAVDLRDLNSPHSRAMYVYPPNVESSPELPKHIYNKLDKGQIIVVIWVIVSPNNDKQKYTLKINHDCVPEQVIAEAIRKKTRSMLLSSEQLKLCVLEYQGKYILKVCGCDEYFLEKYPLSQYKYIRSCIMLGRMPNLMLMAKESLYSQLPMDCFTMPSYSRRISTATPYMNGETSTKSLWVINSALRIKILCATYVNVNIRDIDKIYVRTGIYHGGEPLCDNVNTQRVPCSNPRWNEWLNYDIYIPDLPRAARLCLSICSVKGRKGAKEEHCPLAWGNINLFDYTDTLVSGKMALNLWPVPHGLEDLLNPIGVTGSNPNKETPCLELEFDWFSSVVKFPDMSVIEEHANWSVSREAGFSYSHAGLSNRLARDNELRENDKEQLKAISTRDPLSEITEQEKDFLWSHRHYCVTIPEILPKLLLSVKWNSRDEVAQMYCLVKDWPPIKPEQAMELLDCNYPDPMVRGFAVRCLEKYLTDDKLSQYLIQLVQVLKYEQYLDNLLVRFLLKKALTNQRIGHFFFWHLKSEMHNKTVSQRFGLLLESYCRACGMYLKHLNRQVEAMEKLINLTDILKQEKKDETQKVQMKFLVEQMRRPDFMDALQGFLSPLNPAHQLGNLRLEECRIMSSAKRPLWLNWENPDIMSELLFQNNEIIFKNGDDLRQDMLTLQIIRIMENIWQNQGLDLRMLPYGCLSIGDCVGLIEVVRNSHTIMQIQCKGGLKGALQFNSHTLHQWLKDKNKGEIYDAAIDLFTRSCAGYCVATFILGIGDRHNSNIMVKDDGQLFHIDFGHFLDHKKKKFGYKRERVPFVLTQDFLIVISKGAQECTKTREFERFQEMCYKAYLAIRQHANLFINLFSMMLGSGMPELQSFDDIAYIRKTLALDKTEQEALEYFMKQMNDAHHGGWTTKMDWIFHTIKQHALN
Assay: PI3Kα biochemical kinase assay, fluorescence polarization format (PI3KA_Act)
Details: 0.5 nM p110α/iSH2 p85, 1 mM ATP, 30 μM PIP2, 15-min preincubation; Morrison equation fit; read-out: PI3KA_Act Ki
Define the label as condition met when Ki is strictly less than 1 nM and as condition not met in all remaining cases.

-- ask Item CC(C)(C)OC(=O)N1CC[C@](C)(Nc2cc(-c3cnc(N)nc3)nc(N3CCOCC3)n2)C1 [Example 40] : Ki beneath 1 nM, strictly?
-- reply condition met

-- ask Item Nc1ncc(-c2cc(N[C@@]3(CO)CCN(C4CCNC4=O)C3)nc(N3CCOCC3)n2)cn1 (stereo partly drawn) [Example 80] : Ki beneath 1 nM, strictly?
-- reply condition not met

-- ask Item Nc1ncc(-c2nc(N3CCOCC3)nc(N[C@@]3(COP(=O)(O)O)CCN(C(=O)OCC(F)F)C3)c2F)cn1 [Example 3] : Ki beneath 1 nM, strictly?
-- reply condition not met

-- ask Item Nc1ncc(-c2nc(N3CCOCC3)nc(N[C@@]3(CO)CCN(C(=O)C4(F)CCC4)C3)c2F)cn1 [Example 115] : Ki beneath 1 nM, strictly?
-- reply condition met
